Numbers sourced from patent US9512139B2.

# assay-explanation: Metabolic stability assay, human microsomes
# Format: in vitro ADME
# test-context: both, human, microsomes, 1 h, 10 µM
value-kind: Metabolic Stability 60 min hum [% remain.] (% remain.)
Your answer is read as % remain., so omit the unit and give the number.

(Q) Can you look up the measured Metabolic Stability 60 min hum [% remain.] of CN(C)CC(=O)N[C@H]1C[C@H]2COc3ccc(F)cc3C(=O)N(C)[C@H](C(=O)NCCc3c[nH]c4ccccc34)CCC(=O)N(C)CC(=O)N2C1 [Ex. 16] for me?
(A) 31

(Q) Can you look up the measured Metabolic Stability 60 min hum [% remain.] of CN(C)CC(=O)N[C@@H]1C[C@H]2COc3cccc(c3)C(=O)N(C)C[C@H](NC(=O)Cc3ccc4ccccc4c3)C(=O)N(C)CC(=O)N2C1 [Ex. 230] for me?
(A) 61

(Q) Can you look up the measured Metabolic Stability 60 min hum [% remain.] of CN1C[C@H](NC(=O)OCc2ccccc2)C(=O)N(C)CC(=O)N2C[C@@H](NC(=O)OC(C)(C)C)C[C@H]2COc2cncc(c2)C1=O [Ex. 272] for me?
(A) 65

(Q) Can you look up the measured Metabolic Stability 60 min hum [% remain.] of CC(=O)N[C@H]1C[C@H]2COc3ccc(F)cc3C(=O)N(C)[C@H](C(=O)NCCc3c[nH]c4ccccc34)CCC(=O)N(C)CC(=O)N2C1 [Ex. 9] for me?
(A) 20

* * *

# target: Prostaglandin F (FP) Receptor (Homo sapiens)
# Construct: host or cells: Ca2+ optimized hematopoietic cell lines (rat)
# Sequence (P43088 whole entry): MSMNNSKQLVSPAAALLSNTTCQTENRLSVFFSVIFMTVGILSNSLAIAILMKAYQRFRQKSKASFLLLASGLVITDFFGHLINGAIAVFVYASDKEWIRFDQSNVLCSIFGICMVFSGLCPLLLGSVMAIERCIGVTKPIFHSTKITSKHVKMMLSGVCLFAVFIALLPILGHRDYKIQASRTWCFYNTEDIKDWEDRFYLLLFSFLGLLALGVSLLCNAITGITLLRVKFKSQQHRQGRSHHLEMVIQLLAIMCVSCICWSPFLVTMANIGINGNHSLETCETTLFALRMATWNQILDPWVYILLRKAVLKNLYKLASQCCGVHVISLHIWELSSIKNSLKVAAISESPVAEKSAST
# assay-explanation: Ca2+ assay (FLIPR) for the GPCR prostaglandin F (FP) receptor, agonist and antagonist mode
# Type: cell-based
# test-context: 10 μM
Would you kindly list inhibition at 10 µM for each of these molecules?
Your answer is read as %, so omit the unit and give the number.

(Q) Can you look up the measured inhibition at 10 µM of CN1CCC[C@H](NC(=O)Cc2ccc3ccccc3c2)C(=O)N2C[C@@H](NC(=O)Oc3ccccc3)C[C@H]2COc2cccc(c2)C1=O [Ex. 539] for me?
(A) 59

(Q) Can you look up the measured inhibition at 10 µM of CN1CCC[C@H](NC(=O)CCCCCc2ccccc2)C(=O)N2C[C@@H](NC(=O)CCCCCOCc3ccccc3)C[C@H]2COc2cccc(c2)C1=O [Ex. 524] for me?
(A) 85

(Q) Can you look up the measured inhibition at 10 µM of CN1CCC[C@H](NC(=O)CCCCCOCc2ccccc2)C(=O)N2C[C@@H](NC(=O)Cc3ccc4ccccc4c3)C[C@H]2COc2cccc(c2)C1=O [Ex. 521] for me?
(A) 81

(Q) Can you look up the measured inhibition at 10 µM of CCCCCC/C=C/CC(=O)N[C@H]1CCCN(C)C(=O)c2cccc(c2)OC[C@@H]2C[C@H](NC(=O)Cc3ccc4ccccc4c3)CN2C1=O [Ex. 518] for me?
(A) 80

(Q) Can you look up the measured inhibition at 10 µM of CN1CCC[C@H](NC(=O)Cc2ccc3ccccc3c2)C(=O)N2C[C@@H](NC(=O)Nc3cccc(N(C)C)c3)C[C@H]2COc2cccc(c2)C1=O [Ex. 508] for me?
(A) 93

(Q) Can you look up the measured inhibition at 10 µM of CN1CCC[C@H](NS(=O)(=O)c2ccc(-c3ccccc3)cc2)C(=O)N2C[C@@H](NC(=O)Cc3ccc4ccccc4c3)C[C@H]2COc2cccc(c2)C1=O [Ex. 527] for me?
(A) 73

(Q) Can you look up the measured inhibition at 10 µM of CN(C)c1cccc(NC(=O)N[C@H]2C[C@H]3COc4cccc(c4)C(=O)NCCC[C@H](NC(=O)Cc4ccc5ccccc5c4)C(=O)N3C2)c1 [Ex. 386] for me?
(A) 85

(Q) Can you look up the measured inhibition at 10 µM of CN1CCC[C@H](NC(=O)Cc2ccc(-c3ccccc3)cc2)C(=O)N2C[C@@H](NC(=O)Cc3ccc(-c4ccccc4)cc3)C[C@H]2COc2cccc(c2)C1=O [Ex. 551] for me?
(A) 72

(Q) Can you look up the measured inhibition at 10 µM of CCCCCC(=O)N[C@H]1C[C@H]2COc3cccc(c3)C(=O)N(C)CCC[C@H](NC(=O)Cc3cccc4ccccc34)C(=O)N2C1 [Ex. 544] for me?
(A) 81

(Q) Can you look up the measured inhibition at 10 µM of CN1CCC[C@H](NC(=O)CC(c2ccccc2)c2ccccc2)C(=O)N2C[C@@H](NC(=O)Cc3ccc4ccccc4c3)C[C@H]2COc2cccc(c2)C1=O [Ex. 523] for me?
(A) 92
